Below, each entry is listed with its recorded IC50.
target or test system: melatonin receptor
assay protocol: Inhibition of 2-[125I]iodomelatonin binding (forebrain membrane homogenate)
Set-up: species or system chicken (white leghorn)
condition info: forebrains of 7-day-old chicken; 80 pM 2-[^125I]iodomelatonin; 90 minutes at 25°C; non-specific binding with 10^-5M melatonin; log-probit analysis; read-out: IC50 (nM), Action of inhibiting 2-[^125I]iodomelatonin binding
readout kind: IC50 (nM)

> print(dat)
                                   molecule  readout.kind  observed.value
1  CCC(=O)NCCC1CNc2ccc3c(c21)CCCO3 (stereo not drawn)          IC50            0.46
2       CCCC(=O)NCCc1c[nH]c2ccc3c(c12)CCCO3          IC50           0.082
3        CCC(=O)NCCc1c[nH]c2ccc3c(c12)CCCO3          IC50            0.13
4  CCC(=O)NCCC1CCc2ccc3c(c21)CCO3 (stereo not drawn)          IC50            0.13
5  CCCC(=O)NCCC1CNc2ccc3c(c21)CCCO3 (stereo not drawn)          IC50            0.22
6         CC(=O)NCCc1c[nH]c2ccc3c(c12)CCCO3          IC50            0.46

Taken from patent EP1199304A1.
